Taken from patent US10233186B2.

target_of_assay: human ALK2 R206H (Homo sapiens, UniProt Q04771, R206H)
Construct: expressed in transfected cells; host or cells: HEK293 (ATCC CRL1573), lentivirus transduction, blasticidin selection
Sequence (Q04771 21-509 R206H): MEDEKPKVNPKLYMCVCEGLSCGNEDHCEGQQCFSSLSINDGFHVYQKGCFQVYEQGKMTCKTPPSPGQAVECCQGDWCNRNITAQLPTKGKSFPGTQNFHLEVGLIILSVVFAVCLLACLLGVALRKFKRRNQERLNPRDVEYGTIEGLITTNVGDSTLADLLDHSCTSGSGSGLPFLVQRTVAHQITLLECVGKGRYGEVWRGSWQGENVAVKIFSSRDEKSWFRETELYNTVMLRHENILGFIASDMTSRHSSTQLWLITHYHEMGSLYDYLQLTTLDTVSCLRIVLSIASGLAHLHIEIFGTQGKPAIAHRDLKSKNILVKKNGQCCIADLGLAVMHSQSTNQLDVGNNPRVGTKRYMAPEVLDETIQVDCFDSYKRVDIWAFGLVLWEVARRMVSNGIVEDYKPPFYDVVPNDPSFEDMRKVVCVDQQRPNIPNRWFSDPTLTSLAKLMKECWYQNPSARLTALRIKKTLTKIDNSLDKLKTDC
test_method_notes: Cell-based ALK2-R206H cell activity assay (Smad1-Ser463/Ser465 phosphorylation by AlphaLISA in HEK293-ALK2-R206H cells)
condition_parameters: read-out: Cell Line (Cell Assay IC50)
pIC50: −log10 of the molar value.
measured_quantity: pIC50

So, COC1(c2ccc(-c3cc4c(N5CCN(C(=O)NC(C)C)CC5)ccnn4c3)cc2F)CCN(C(C)C)CC1 [Compound 720] ? Its pIC50 was > 7.00

Reported pIC50 of CCN1CCC(c2ccc(-c3cc4c(N5CCN(C(=O)C6CCC(C)(O)CC6)CC5)ccnn4c3)cc2)CC1 (stereo not shown) [Compound 431] : 6.30 to 7.00

Reported pIC50 for CC(C)NC(=O)N1CCN(c2ccnn3cc(-c4cnn([C@H]5CCCN(C(C)C)C5)c4)cc23)CC1 [Compound 557] was > 7.00

Form: compound = COC1(c2ccc(-c3cc4c(N5CCN(C(=O)OC6COC6)CC5)ccnn4c3)cc2)CCN([C@H](C)COC(F)F)CC1 [Compound 897] ; pIC50 = > 7.00

* * *

target_of_assay: ALK2 R206H (GST-tagged mutant ALK2) (Homo sapiens, UniProt Q04771, R206H)
Construct: purchased Carna Bioscience or ThermoFisher 09-148 or PV6232
test_method_notes: ALK binding assay (LANTHASCREEN TR-FRET competitive binding, displacement of Kinase Tracer 178)
Hi there, I'd appreciate the recorded IC50 for every entry that follows.

# lookup: COC(=O)C1(c2ccc(-c3cc4c(N5CCN(C(=O)OC6COC6)CC5)ccnn4c3)cc2)CCN(C(C)C)CC1 [Compound 874] on ALK2 R206H (GST-tagged mutant ALK2) (Homo sapiens, UniProt Q04771, R206H), IC50 = < 10 nM

Entry CC1(C)CC(O)(c2ccc(-c3cc4c(N5CCN(C(=O)C6CC6)CC5)ccnn4c3)cc2)CC(C)(C)N1 [Compound 813] under ALK2 R206H (GST-tagged mutant ALK2) (Homo sapiens, UniProt Q04771, R206H) had IC50 of < 10 nM

* * *

target_of_assay: human ALK2 R206H (Homo sapiens, UniProt Q04771, R206H)
Construct: expressed in transfected cells; host or cells: HEK293 (ATCC CRL1573), lentivirus transduction, blasticidin selection
test_method_notes: Cell-based ALK2-R206H cell activity assay (Smad1-Ser463/Ser465 phosphorylation by AlphaLISA in HEK293-ALK2-R206H cells)
condition_parameters: read-out: Cell Line (Cell Assay IC50)
measured_quantity: IC50

get_value(item= CCN1CCN(c2ccc(-c3cc4c(N5CCN(C(=O)C(C)C)CC5)ccnn4c3)cc2)CC1 , readout=IC50) returns 100 to 500 nM

Value of measured IC50 for the entry COC[C@H](C)N1CCC(OC)(c2ccc(-c3cc4c(N5CCN(C(=O)C6CC6)CC5)ccnn4c3)nc2)CC1 : < 100 nM

Entry CC(C)N1CCC(c2ccc(-c3cc4c(N5CCN(C(=O)C6CC6)CC5)ccnn4c3)cc2)CC1 , IC50 reported as < 100 nM

The reported value for CC(C)N1CCC(C)(c2ccc(-c3cc4c(N5CCN(C(=O)C6CC6)CC5)ccnn4c3)cc2)CC1 in terms of IC50 is < 100 nM

IC50 reported for this compound O=C(C1CC1)N1CCN(c2ccnn3cc(-c4ccc(C5CCNC5)cc4)cc23)CC1 (stereo not drawn) : 100 to 500 nM

Documented IC50 of CCO[C@]1(c2ccc(-c3cc4c(N5CCN(C(=O)NC(C)C)CC5)ccnn4c3)cc2)CCN(C(C)C)C1 : < 100 nM

The compound identified as CC(C)N1CC(F)C(c2ccc(-c3cc4c(N5CCN(C(=O)C6CC6)CC5)ccnn4c3)cc2)C1 (stereo not drawn) registered its IC50 at < 100 nM

# IC50 (compound: COC1(c2ccc(-c3cc4c(N5CCN(C(=O)C6CC6)CC5)ccnn4c3)cc2)CCN([C@@H](C)COC(F)F)CC1 ) is < 100 nM

Lab note: CCOC(=O)N1CCN(c2ccnn3cc(-c4cnc(N5CCN(C(C)C)CC5)cn4)cc23)CC1 gave IC50 of 100 to 500 nM

Sample CCN1CCC(c2ccc(-c3cc4c(N5CCN(C(=O)C6CC(C)(O)C6)CC5)ccnn4c3)cc2)CC1 (stereo not drawn) ; IC50 observed: < 100 nM

IC50 measured on CCN1CCN(c2ccc(-c3cc4c(N5CCN(C(=O)C6CC(F)(F)C6)CC5)ccnn4c3)cc2)CC1 = 100 to 500 nM

# IC50 (compound: CCOC1(c2ccc(-c3cc4c(N5CCN(C(=O)NC(C)C)CC5)ccnn4c3)nc2)CCN(C2COC2)CC1 ) is < 100 nM

compound CC(C)N1CCN[C@H](c2ccc(-c3cc4c(N5CCN(C(=O)C6CC6)CC5)ccnn4c3)cc2)C1 , IC50 observed: < 100 nM

Quick note, IC50 for CCOC1(c2ccc(-c3cc4c(N5CCN(C(=O)OC6COC6)CC5)ccnn4c3)nc2)CCN(C2CC2)CC1 landed at < 100 nM

The compound listed as COC1(c2ccc(-c3cc4c(N5CCN(C(=O)OC(C)C)CC5)ccnn4c3)cc2)CCN(C(C)C)CC1 has a reported IC50 of < 100 nM
